# System: mice, P1798 lymphosarcoma sc, survival or tumor weight T/C
# ASSAY PROCEDURE: NCI In Vivo Anticancer Drug Screen. Data for tumor model P1798 Lymphosarcoma (subcutaneous) in unknown mice
# TEST SETTINGS: endpoint: mean tumor weight; dose: 25.0 mg/kg/injection; schedule: Q01DX010 (ip); vehicle: carboxymethylcellulose (CMC); higher = larger tumour
Records with an inconclusive call do not appear.
MEASURE NAME: T/C

Take a look at these entries with their results.
Consider N#CCSc1ncnc2nc[nH]c12 . Its measured T/C is 49 % of control

The compound CN(C)c1ccc(Nc2c3ccccc3nc3ccccc23)cc1 showed T/C equal to 36 % of control

The value of T/C measured for the compound O=c1[nH]c(=O)n(C2CC(O)C(CO)O2)cc1F (stereo not given) turned out to be 42 % of control

# T/C (compound: CCCCCCCCCCCCCCCCC(C(=O)O)C(O)(CC(=O)O)C(=O)O (stereo not given) ) is 87 % of control

For reference, reported T/C for CCCCNc1ncnc2c1cnn2C stands at 57 % of control

Just so you know, measured T/C for CSc1ncnc2nc[nH]c12 came out at 45 % of control

Further cases:
Measured T/C, O=c1[nH]c2cc(Cl)c(Cl)cc2o1 : 76 % of control

The recorded T/C for O=C(O)CCCc1ccc(N(CCCl)CCCl)cc1 is 73 % of control

Sample Cn1c(N)nc2nc[nH]c2c1=S ; T/C observed: 101 % of control

What the record says about CS(=O)(=O)OCCCl : T/C is 89 % of control
